For each of the molecules below, state its Ratio.
- Procedure Text: Selectivity for PTP1B to human recombinant SHP1
I only need the number, thanks.

// Ratio lookup, molecule = `C[C@H]1[C@H](C)CC[C@]2(C(=O)O)CC[C@]3(C)C(=CC[C@@H]4[C@@]5(C)C[C@@H](O)[C@H](O)C(C)(C)[C@@H]5CC[C@]43C)[C@H]12` , result: 2

// Ratio lookup, molecule = `CC1(C)CC[C@]2(CCCCC(=O)N[C@@H](Cc3ccccc3)C(=O)O)CC[C@]3(C)C(=CC[C@@H]4[C@@]5(C)CC[C@H](O)C(C)(C)[C@@H]5CC[C@]43C)[C@@H]2C1` , result: 2

// Ratio lookup, molecule = `CC1(C)CC[C@]2(CCC(=O)O)CC[C@]3(C)C(=CC[C@@H]4[C@@]5(C)CC[C@H](O)C(C)(C)[C@@H]5CC[C@]43C)[C@@H]2C1` , result: 2
